# assay_method_text: yeast display, Sf9 membrane polyspecificity reagent, FACS + sequencing; frameworks hold sequencing errors
reported_property: polyreactivity (PSR sort gate)

Consider the worked cases shown below.
- QVQLVESGGGLVQAGGSLRLSCAASGITFSQYAMGWYTQAPGKERELVASISEGDGTNYADSVKGRFTISRDNAKNTVYLQMNSLKPEDTAVYYCAAPRPYYWSRRYYRAFDYWGQGTQVTVSS: high polyreactivity
- QVQLVESGGGLVQAGGSLRLSCAASGSFYDRYVMGWYRQAPGKERELVAAISSSGGSTYYADSVKGRFTISRDNAKNTVYFQMNSLKPEDSAVYYCAAKFSYGRYNYWGQGTQVTVSS: high polyreactivity
- QVQLVESGGGLVQAGGSLRLSCAASGFTFAVYVMGWSRQAPGKERELVATISFSVGSTYYADSVKRRFTISRDNAKNTVYLQMNSLKPEDTAVYYCNADPPPEYYPDKDNYWGQGTQVTVSS: low polyreactivity
- QVQLVESGGGLVQAGGSLRLSCAASGRTFTGNAMGWYRQATGKERELVAAINSGGGRTFYADSVKGRFTISRDNAKNTVYLQMTSLKPEDTAVYYCNAVKYRSYYWGQGTQVTVSS: high polyreactivity

Consider now this further sequence.
Note to self: polyreactivity (PSR sort gate) recorded for QVQLVESGGGLVQAGGSLRLSCAASGRIFYYNAMGWYRQAPGKERELVARISSGGSTNYADSVKGRFTISRDNAKNTVYLQMNSLKPEDTAVYYCAVAKGGLAWGVGRAGRYDFWGQGTQVTVSS was low polyreactivity

====

# assay_method_text: yeast display, Sf9 membrane polyspecificity reagent, FACS + sequencing; frameworks hold sequencing errors
reported_property: polyreactivity (PSR sort gate)

Consider the worked cases shown below.
* QVQLVESGGGLVQAGGSLRLSCAASGSIFQRNAMGWYRQAPGKERELVAAISRSGGRTYYADSVKGRFTISRDNAKNTVYLQMNILKPEDTAVYYCAADSPYIQNRFEYWGQGTQVTVSS | high polyreactivity
* QVQLVESGGGLVQAGGILRLSCTASGFTLGHYAMGWYRQSPGKERELVAVITSGSSTNYADSVKGRFTISRDNAKNTVYLQMNSLKPEDTAVYYCAAEDQFFKWLYYFWGEGTQVTVSS | low polyreactivity
* QVQLVESGGGLDQAGGSLRLSCAASGFTFPLYAMGWYRQAPGKERELVAVISRSGGSTYYADSVKGRFTISRDNAKNTVYLQMNSLTPEDTAVYYCAARLVPRSPERGNYDYWGQGTQVTVSS | high polyreactivity
* QVQLVESGGGLVQAGGSLRLSCAASGIIFPVYDMGWYRQAPGKERELVASITDSGGSTSYADSVKGRFTISRDNAKNTVYLQMNSLKPEDTAVYYCAVTDSDTNYYGYLSYDYWGQGTQVTVSS | low polyreactivity
* QVQLVESGGGFVQAGGSLRLSCAASGVTYGGYAMGWYRQAPGKERELVAAITGSAGNTFYADSVKGRFTISRDNAKHTVYLQMNSLKPEDTAVYYCANTWYPWSRYGYYGRYDSWGLGTQVTVSS | low polyreactivity

Note to self: polyreactivity (PSR sort gate) recorded for QVQLVDTGGGLVQAGGSLRLICAASGLTFSYNAMGWYRQAPGKERELVAAITVSGGRTYYADSVKGRFTISRDNAKNTVYLQMNSLKAEDTAVYYCNADYDEGYYGYLRYDYDYWGQGTQVTVSS was high polyreactivity

Note to self: polyreactivity (PSR sort gate) recorded for PVQLVESGGGLVQAGGSLRLSCAASGRTFGYNAMGWYRQAPGKERELVASISYRGGSTYYADSVKGRFTISRDNAKNTVYLQMNSLKPEDTAVYYCNKYYVWREYYWGQGTQVNVSS was high polyreactivity

Note to self: polyreactivity (PSR sort gate) recorded for QVQLVETGRGLVQAGGSLRLICAASGRTFGYYAMGWYRQAPGKEREFVAAISHSAGSTSYADSVKGRFTISRDNAKNTVYLQMNSLKPEDTAVFYFAAEICYLSVPRYDYWGQGTQVTVSS was low polyreactivity

Note to self: polyreactivity (PSR sort gate) recorded for QVQLVESGGGLVQAGGSLRLSCAASGFTFQPNAMGWYRQAPGKERELVAAITWSTGRTYYADSVKGRFTISRDNAKNTVYLQMNSLKPEDTAVYYCNKRKNLLHSFEYDYWGQGTQVTVSS was low polyreactivity

Note to self: polyreactivity (PSR sort gate) recorded for QVQLVESGGGLVQAGGSLRLRCAASGRTFSHYAMGWYRQAAGKESELVATITRNGGITYYADSVKGRFTISRDNAKNTVYLQMNSLKPEDTAVYYCNKRWGGPIQFDYWGQGTQVTVSS was low polyreactivity

Note to self: polyreactivity (PSR sort gate) recorded for QVQLVESGGGLVQAGGSLRLICAASGSTFQLTAMGWYIQAPGTEREFVASITDSGGRTYYADSVKGRFTISRDNANNTVYLQMNSLKPVDTAVYYCNTAGAAERRRAYDHDYWGQGTQVTVSS was high polyreactivity
